Cited source: paper PMC7037636

# experimentalSystem: bovine liver β-galactosidase
# Construct: commercial native enzyme from bovine liver (Sigma-Aldrich)
# protocol: PNP-β-Gal hydrolysis, absorbance at […] nm
# measurementSetup: 1 mM PNP-β-Gal, citrate-phosphate buffer pH 7.3, 37 °C, 0.12 mg/mL enzyme; read-out: Inh.
recordedEndpoint: IC50 (µM)

> print(dat)
                                   molecule  recordedendpoint  measurednumber
1  CCOC(=O)c1c(-c2ccccc2)nc([C@@H]2O[C@H](CO)[C@@H](O)[C@H](O)[C@H]2O)[nH]c1=O [11h]              IC50             294
